Target: T1, ST2 on the effector cells (KU812, KU812/NF-κB-1#, HUVEC, HMC-1) (human, UniProt Q01638 19-556)
T1 sequence (looked up): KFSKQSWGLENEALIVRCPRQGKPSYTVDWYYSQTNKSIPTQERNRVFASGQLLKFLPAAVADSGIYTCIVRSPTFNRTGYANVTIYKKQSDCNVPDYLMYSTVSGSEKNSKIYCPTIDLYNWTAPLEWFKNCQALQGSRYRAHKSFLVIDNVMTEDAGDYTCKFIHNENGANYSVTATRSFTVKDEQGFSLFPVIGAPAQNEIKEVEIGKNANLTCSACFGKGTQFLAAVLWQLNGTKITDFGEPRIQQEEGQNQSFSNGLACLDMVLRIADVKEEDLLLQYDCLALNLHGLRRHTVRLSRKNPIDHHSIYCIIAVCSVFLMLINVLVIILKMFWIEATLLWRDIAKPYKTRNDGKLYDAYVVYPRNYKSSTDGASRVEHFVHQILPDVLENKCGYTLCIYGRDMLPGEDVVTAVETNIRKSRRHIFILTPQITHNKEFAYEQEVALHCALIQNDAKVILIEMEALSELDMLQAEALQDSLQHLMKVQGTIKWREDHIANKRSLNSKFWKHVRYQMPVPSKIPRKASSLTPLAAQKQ
Test: cell-based or functional assay
VALUE TYPE: IC50, inhibition of KU812-IL5 production promoted by IL-33 (human IL33-his)

5888-153-H0L1 (antibody, human IgG4 S228P, kappa, V domains shown, Humanized antibody) VH: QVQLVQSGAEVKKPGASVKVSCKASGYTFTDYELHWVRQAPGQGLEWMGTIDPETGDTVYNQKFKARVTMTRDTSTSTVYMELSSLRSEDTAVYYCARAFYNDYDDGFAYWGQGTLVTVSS VL: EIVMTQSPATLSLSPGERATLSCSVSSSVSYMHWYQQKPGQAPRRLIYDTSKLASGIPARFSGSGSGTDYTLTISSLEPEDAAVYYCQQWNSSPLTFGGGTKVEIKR = 0.0303 µg/mL
5888-116-H0L1 (antibody, human IgG4 S228P, kappa, V domains shown, Humanized antibody) VH: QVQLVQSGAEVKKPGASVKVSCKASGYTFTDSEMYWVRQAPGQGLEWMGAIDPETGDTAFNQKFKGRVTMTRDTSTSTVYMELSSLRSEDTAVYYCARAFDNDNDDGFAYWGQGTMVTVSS VL: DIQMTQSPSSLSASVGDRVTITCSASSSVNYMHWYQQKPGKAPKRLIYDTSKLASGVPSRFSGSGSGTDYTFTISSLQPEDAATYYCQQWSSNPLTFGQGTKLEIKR = 0.00929 µg/mL
5887-41-H1L0 (antibody, human IgG4 S228P, kappa, V domains shown, Humanized antibody) VH: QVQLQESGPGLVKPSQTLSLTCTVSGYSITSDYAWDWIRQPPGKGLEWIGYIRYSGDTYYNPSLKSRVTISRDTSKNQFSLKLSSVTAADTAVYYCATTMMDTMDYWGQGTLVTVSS VL: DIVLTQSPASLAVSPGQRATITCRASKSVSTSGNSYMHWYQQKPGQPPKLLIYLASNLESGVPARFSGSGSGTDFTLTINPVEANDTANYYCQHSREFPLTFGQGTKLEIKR = 0.0699 µg/mL

Return value of IC50, inhibition of KU812-IL5 production promoted by IL-33 (human IL33-his) for input 5886-156-H1L0 (antibody, human IgG4 S228P, kappa, V domains shown, Humanized antibody expressed in CHO-K1, purified by protein A) VH: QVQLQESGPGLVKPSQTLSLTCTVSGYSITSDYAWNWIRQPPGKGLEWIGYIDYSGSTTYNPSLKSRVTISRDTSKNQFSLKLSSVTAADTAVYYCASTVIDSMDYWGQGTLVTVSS VL: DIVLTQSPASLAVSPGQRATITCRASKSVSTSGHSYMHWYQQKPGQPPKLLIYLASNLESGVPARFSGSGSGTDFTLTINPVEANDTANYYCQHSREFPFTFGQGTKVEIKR , no commentary.
0.0354 µg/mL

Identify measured IC50, inhibition of KU812-IL5 production promoted by IL-33 (human IL33-his) corresponding to 5888-153-H3L2 (antibody, human IgG4 S228P, kappa, V domains shown, Humanized antibody) VH: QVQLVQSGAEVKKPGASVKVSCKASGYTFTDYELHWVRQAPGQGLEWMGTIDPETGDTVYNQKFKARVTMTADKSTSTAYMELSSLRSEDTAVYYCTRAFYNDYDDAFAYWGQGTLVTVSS VL: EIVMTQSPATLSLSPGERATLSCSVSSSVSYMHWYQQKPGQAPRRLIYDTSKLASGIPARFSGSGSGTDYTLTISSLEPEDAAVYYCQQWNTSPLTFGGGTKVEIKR
0.0755 µg/mL

Cited source for all entries: patent US12624112
